# Tested on: PC-12
# TEST_DESCRIPTION: Cytoprotective activity against t-BPH-induced cell damage in rat PC12 cells assessed as cell viability
# Format: functional, cell-based
PROPERTY_MEASURED: pIC50
Remember the convention: pIC50 equals -log10 of concentration in molar.

response.value for CC1=C(O)C(=O)C=C2C1=CC=C1[C@@]2(C)CC[C@@]2(C)[C@@H]3C[C@](C)(C(=O)O)CC[C@]3(C)CC[C@]12C (field: pIC50) = 5.50

----------
# TEST_DESCRIPTION: Antitumor activity against mouse SW1 cells
# Assay type: functional, cell-based
PROPERTY_MEASURED: pEC50
// returns pEC50 (minus log10 of molar concentration), number only

Recorded result, CC1=C(O)C(=O)C=C2C1=CC=C1[C@@]2(C)CC[C@@]2(C)[C@@H]3C[C@](C)(C(=O)OCc4ccccc4)CC[C@]3(C)CC[C@]12C , pEC50: 6.52

Origin of values: ChEMBL document CHEMBL1177804
